assay details: Selectivity index, ratio of CC50 for MDCK cells to EC50 for Influenza A virus A/WSN/33 (H1N1)
Assay type: toxicity
test parameters: dog, read-out: Ratio CC50/EC50
Listed here are compounds together with their documented selectivity ratio.

test smiles	selectivity ratio
C[Si](C)(C)c1ccc(CNC23CC4CC(CC(C4)C2)C3)cc1	1.7
C[Si](C)(C)c1ccc(CNC23CC4CC(CC(O)(C4)C2)C3)cc1	102
C[Si](C)(C)c1ccc(CNC23CC4CC(CC(C4)C2)C3)nc1	3
C[Si](C)(c1ccccc1)c1ccc(CNC23CC4CC(CC(O)(C4)C2)C3)cc1	2.3
CC(C)(C)c1ccc(CNC23CC4CC(CC(C4)C2)C3)cc1	3.7
CC(C)(C)c1ccc(CNC23CC4CC(CC(O)(C4)C2)C3)cc1	12.8
